Assay: Measurement of log P values by HPLC on reversed phase columns (methods [a] pH 2.3, [b] pH 2.7, [c] pH 7.8)
Assay type: physicochemical
Details: method [b], HPLC reversed phase, pH 2.7
Overview of reported logP across a group of compounds:

# count of solved cases: 3
- COMPOUND: "Cn1cc(C(=O)N(C2CC2)C2CCCCC2c2ccccc2)c(C(F)(F)F)c1 (stereo not drawn)"
  MEASURED_RESULT: "3.90^[b]"
- COMPOUND: "Cc1cc(C(=O)N(C2CC2)C2CCCCC2c2ccc(Cl)cc2Cl)c(C)o1 (stereo not drawn)"
  MEASURED_RESULT: "5.85^[b]"
- COMPOUND: "Cc1cc(C(=O)N[C@@H]2CCC[C@H]2c2ccc(F)c(F)c2)c(C)o1 (relative stereo)"
  MEASURED_RESULT: "3.46^[b]"

We next turn to a different compound, shown below.
Incoming: Given the entry O=C(NC1CCC1c1ccccc1C(F)(F)F)c1ncccc1Cl (stereo not drawn) , report its measured logP.
Outgoing: 3.01^[b]

These data points were gathered from patent US20160075653A1.
